For each record, write down the corresponding pEC50.
molecular target: Metabotropic glutamate receptor 2 (Homo sapiens); assay: Positive allosteric modulation of human mGlu2 receptor expressed in CHOK1 cell membranes assessed as increase in glutamate-induced [35S]GTPgammaS binding preincubated for 30 mins followed by [35S]GTPgammaS addition and measured after 90 mins by scintillation spectrometry method; format: functional
// field semantics: pEC50 = negative decimal log of concentration (mol/L)

Bench note: what pEC50 did `O=C(Nc1cccc(-c2ccn3c(CC4CC4)nnc3c2C(F)(F)F)c1)c1ccc(S(=O)(=O)F)cc1` show?
6.80

Please report the recorded pEC50 for `O=C(NCc1ccc(-c2ccn3c(CC4CC4)nnc3c2C(F)(F)F)cc1)c1ccc(S(=O)(=O)F)cc1` .
7.82

I am curious: what pEC50 value has been reported for `O=C(Nc1ccc(-c2ccn3c(CC4CC4)nnc3c2C(F)(F)F)cc1)c1ccc(S(=O)(=O)F)cc1` ?
6.80

---

target: Metabotropic glutamate receptor 2 (Homo sapiens); assay: Positive allosteric modulation of human mGlu2 receptor expressed in CHOK1 cell membranes assessed as increase in glutamate-induced [35S]GTPgammaS binding measured after 1 hr by scintillation spectrometry method; type: functional
result.type: pEC50
Scale: pEC50 equals -log10([C]), with [C] in mol/L.

Requested field: pEC50. Item: `O=C(Nc1ccc(-c2ccn3c(CC4CC4)nnc3c2C(F)(F)F)cc1)c1ccc(S(=O)(=O)F)cc1`
5.90

---

target: Metabotropic glutamate receptor 2 (Homo sapiens, UniProt Q14416); test: Displacement of [3H]JNJ-46281222 from human mGlu2 receptor expressed in CHOK1 cell membranes after 1 hr by microbeta scintillation counting method
Sequence (Q14416 whole entry): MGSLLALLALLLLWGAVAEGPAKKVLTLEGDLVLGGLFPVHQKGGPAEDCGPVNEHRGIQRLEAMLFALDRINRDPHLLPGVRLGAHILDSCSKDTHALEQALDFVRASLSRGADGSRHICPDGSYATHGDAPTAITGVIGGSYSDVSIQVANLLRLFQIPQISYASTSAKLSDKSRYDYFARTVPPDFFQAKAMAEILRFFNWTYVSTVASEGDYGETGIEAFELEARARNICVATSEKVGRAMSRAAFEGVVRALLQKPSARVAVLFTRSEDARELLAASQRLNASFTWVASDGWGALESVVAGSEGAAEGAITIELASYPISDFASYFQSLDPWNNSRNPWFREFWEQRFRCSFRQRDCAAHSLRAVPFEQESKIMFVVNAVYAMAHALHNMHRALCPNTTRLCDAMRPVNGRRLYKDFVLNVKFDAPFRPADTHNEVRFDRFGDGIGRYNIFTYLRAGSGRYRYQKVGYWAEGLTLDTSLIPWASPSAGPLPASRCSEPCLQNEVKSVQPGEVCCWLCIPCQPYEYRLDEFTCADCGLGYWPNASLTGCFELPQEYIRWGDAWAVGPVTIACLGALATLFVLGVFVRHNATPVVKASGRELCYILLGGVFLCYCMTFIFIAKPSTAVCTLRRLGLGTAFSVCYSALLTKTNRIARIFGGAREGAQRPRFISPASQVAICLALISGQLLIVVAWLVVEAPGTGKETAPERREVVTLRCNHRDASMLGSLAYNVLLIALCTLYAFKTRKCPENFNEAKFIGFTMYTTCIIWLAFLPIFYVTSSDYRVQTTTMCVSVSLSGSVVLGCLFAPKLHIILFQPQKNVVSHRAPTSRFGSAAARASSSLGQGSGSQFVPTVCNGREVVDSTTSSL
Can you tell me Ki for the items I'm about to list?
Answer as a quantity: numeral, then unit.

Which Ki is reported with Metabotropic glutamate receptor 2 (Homo sapiens, UniProt Q14416) for this entry: `O=C(NCc1ccc(-c2ccn3c(CC4CC4)nnc3c2C(F)(F)F)cc1)c1ccc(S(=O)(=O)F)cc1` ?
5.75 nM

What is its Ki for Metabotropic glutamate receptor 2 (Homo sapiens, UniProt Q14416)? Entry: `O=C(Nc1ccc(-c2ccn3c(CC4CC4)nnc3c2C(F)(F)F)cc1)c1ccc(S(=O)(=O)F)cc1`
61.7 nM

Metabotropic glutamate receptor 2 (Homo sapiens, UniProt Q14416) / Ki / `O=C(Nc1cccc(-c2ccn3c(CC4CC4)nnc3c2C(F)(F)F)c1)c1ccc(S(=O)(=O)F)cc1` : value?
112 nM

---

target: Metabotropic glutamate receptor 2 (Homo sapiens); experiment: Displacement of [3H]JNJ-46281222 from human mGlu2 receptor transiently expressed in CHOK1 cell membranes after 1 hr by liquid scintillation counting method
result.type: pKi
As a rule, pKi stands for the negative log10 of the concentration, concentration in M.

Need pKi, item `O=C(Nc1ccc(-c2ccn3c(CC4CC4)nnc3c2C(F)(F)F)cc1)c1ccc(S(=O)(=O)F)cc1`
6.76
